Listed here: items and their measured pIC50.
tested on: MRC5; experiment: Cytotoxicity against human MRC5 cells assessed as inhibition of cell viability after 48 hrs by SRB assay; assay type: cell-based; conditions: MRC5, 48 h
pIC50: −log10 of the molar value.
parameter: pIC50

[[record]]
molecule = "C[C@@H](O)[C@H](O)[C@@H](O)CCN[C@H]1CC[C@@]2(C)[C@H](CC[C@@H]3[C@@H]2CC[C@]2(C)[C@@H](C4=CC(=O)OC4)CC[C@]32O)C1"
study_system = "MRC5"
comparative_sign = "="
numeric_readout = 6.26

[[record]]
molecule = "C[C@]12CC[C@H](NC(=O)CNc3ccc(C#N)cc3)C[C@H]1CC[C@@H]1[C@@H]2CC[C@]2(C)[C@@H](C3=CC(=O)OC3)CC[C@]12O"
study_system = "MRC5"
comparative_sign = "="
numeric_readout = 5.97

[[record]]
molecule = "C[C@]12CC[C@H](n3cc(CO[C@H]4O[C@H](CO)[C@@H](O)[C@H](O)[C@@H]4O)nn3)C[C@H]1CC[C@@H]1[C@@H]2CC[C@]2(C)[C@@H](C3=CC(=O)OC3)CC[C@]12O"
study_system = "MRC5"
comparative_sign = "="
numeric_readout = 6.44

[[record]]
molecule = "C[C@]12CC[C@H](O)C[C@H]1CC[C@@H]1[C@@H]2CC[C@]2(C)[C@@H](C3=CC(=O)OC3)CC[C@]12O [DIGITOXIGENIN]"
study_system = "MRC5"
comparative_sign = "="
numeric_readout = 5.94

[[record]]
molecule = "C[C@]12CC[C@H](NC(=O)CO)C[C@H]1CC[C@@H]1[C@@H]2CC[C@]2(C)[C@@H](C3=CC(=O)OC3)CC[C@]12O"
study_system = "MRC5"
comparative_sign = "="
numeric_readout = 6.60

[[record]]
molecule = "CC(=O)O[C@H]1C(=O)[C@@]2(C)[C@H]([C@H](OC(=O)c3ccccc3)[C@]3(O)C[C@H](OC(=O)[C@H](O)[C@@H](NC(=O)c4ccccc4)c4ccccc4)C(C)=C1C3(C)C)[C@]1(OC(C)=O)CO[C@@H]1C[C@@H]2O [PACLITAXEL]"
study_system = "MRC5"
comparative_sign = "<"
numeric_readout = 3.70

[[record]]
molecule = "C[C@]12CC[C@H](NC(=O)CNCCO)C[C@H]1CC[C@@H]1[C@@H]2CC[C@]2(C)[C@@H](C3=CC(=O)OC3)CC[C@]12O"
study_system = "MRC5"
comparative_sign = "="
numeric_readout = 6.89


====

assay: Inhibition of porcine cortex Na+/K+-ATPase alpha1/2/3 subunit using ATP as substrate preincubated for 30 mins followed by substrate addition and measured after 30 mins by malachite green reagent-based assay; design: species or system Sus scrofa
pIC50: −log10 of the molar value.
parameter: pIC50

[[record]]
smiles_representation = "C[C@@H](O)[C@H](O)[C@@H](O)CCN[C@H]1CC[C@@]2(C)[C@H](CC[C@@H]3[C@@H]2CC[C@]2(C)[C@@H](C4=CC(=O)OC4)CC[C@]32O)C1"
numeric_readout = 5.69

[[record]]
smiles_representation = "C[C@]12CC[C@H](NC(=O)CNc3ccc(Cl)cc3)C[C@H]1CC[C@@H]1[C@@H]2CC[C@]2(C)[C@@H](C3=CC(=O)OC3)CC[C@]12O"
numeric_readout = 4.97

[[record]]
smiles_representation = "C[C@]12CC[C@H](NC(=O)CNc3ccc(C#N)cc3)C[C@H]1CC[C@@H]1[C@@H]2CC[C@]2(C)[C@@H](C3=CC(=O)OC3)CC[C@]12O"
numeric_readout = 5.38


====

assay: Selectivity index, ratio of Cytotoxicity against African green monkey Vero cells assessed as reduction in cell viability after 48 hrs by SRB assay to Antiviral activity against acyclovir-sensitive Herpes simplex virus 1 KOS infected in African green monkey Vero cells assessed as inhibition of viral replication after 48 hrs by naphthol blue-black staining-based plaque reduction assay; assay type: toxicity; settings: Vero cells infected with HSV-1 KOS, read-out: Ratio CC50/IC50
Each record here notes measured selectivity ratio at 48 h.
parameter: selectivity ratio at 48 h

[[record]]
smiles_representation = "C[C@@H](O)[C@H](O)[C@@H](O)CCN[C@H]1CC[C@@]2(C)[C@H](CC[C@@H]3[C@@H]2CC[C@]2(C)[C@@H](C4=CC(=O)OC4)CC[C@]32O)C1"
result = "> 206"

[[record]]
smiles_representation = "C[C@]12CC[C@H](n3cc(CO[C@H]4O[C@H](CO)[C@@H](O)[C@H](O)[C@@H]4O)nn3)C[C@H]1CC[C@@H]1[C@@H]2CC[C@]2(C)[C@@H](C3=CC(=O)OC3)CC[C@]12O"
result = "> 546"

[[record]]
smiles_representation = "CC(=O)OC[C@H]1O[C@H](O[C@H]2[C@H](OC(C)=O)[C@@H](OC(C)=O)[C@H](OCc3cn([C@H]4CC[C@@]5(C)[C@H](CC[C@@H]6[C@@H]5CC[C@]5(C)[C@@H](C7=CC(=O)OC7)CC[C@]65O)C4)nn3)O[C@@H]2COC(C)=O)[C@H](OC(C)=O)[C@@H](OC(C)=O)[C@@H]1OC(C)=O"
result = 6.86


====

Catalogue of pIC50 readings, one per entry.
system: Human alphaherpesvirus 2; assay: Antiviral activity against Herpes simplex virus 2-333 infected in African green monkey Vero cells assessed as inhibition of viral replication after 48 hrs by naphthol blue-black staining-based plaque reduction assay; type: functional, organism-based; conditions: Human alphaherpesvirus 2, 333, Vero
pIC50: −log10 of the molar value.
parameter: pIC50

[[record]]
molecule = "C[C@]12CC[C@H](O)C[C@H]1CC[C@@H]1[C@@H]2CC[C@]2(C)[C@@H](C3=CC(=O)OC3)CC[C@]12O [DIGITOXIGENIN]"
parameter = "pIC50"
numeric_readout = 5.49

[[record]]
molecule = "CC(=O)OC[C@H]1O[C@H](O[C@H]2[C@H](OC(C)=O)[C@@H](OC(C)=O)[C@H](OCc3cn([C@H]4CC[C@@]5(C)[C@H](CC[C@@H]6[C@@H]5CC[C@]5(C)[C@@H](C7=CC(=O)OC7)CC[C@]65O)C4)nn3)O[C@@H]2COC(C)=O)[C@H](OC(C)=O)[C@@H](OC(C)=O)[C@@H]1OC(C)=O"
parameter = "pIC50"
numeric_readout = 5.01

[[record]]
molecule = "C[C@]12CC[C@H](NC(=O)CCl)C[C@H]1CC[C@@H]1[C@@H]2CC[C@]2(C)[C@@H](C3=CC(=O)OC3)CC[C@]12O"
parameter = "pIC50"
numeric_readout = 5.86

[[record]]
molecule = "C[C@]12CC[C@H](n3cc(CO[C@@H]4O[C@H](CO)[C@H](O)[C@H](O)[C@H]4O)nn3)C[C@H]1CC[C@@H]1[C@@H]2CC[C@]2(C)[C@@H](C3=CC(=O)OC3)CC[C@]12O"
parameter = "pIC50"
numeric_readout = 5.91


====

Readings of IC50 for the listed compounds
tested on: Human alphaherpesvirus 2; test: Antiviral activity against Herpes simplex virus 2-333 infected in African green monkey Vero cells assessed as inhibition of viral replication after 48 hrs by naphthol blue-black staining-based plaque reduction assay; type: functional, organism-based; conditions: Human alphaherpesvirus 2, 333, Vero
parameter: IC50

[[record]]
smiles_representation = "C[C@]12CC[C@H](NC(=O)CN3CCC(c4ccccc4)CC3)C[C@H]1CC[C@@H]1[C@@H]2CC[C@]2(C)[C@@H](C3=CC(=O)OC3)CC[C@]12O"
parameter = "IC50"
result = "490 nM"

[[record]]
smiles_representation = "C[C@@H](O)[C@H](O)[C@@H](O)CCN[C@H]1CC[C@@]2(C)[C@H](CC[C@@H]3[C@@H]2CC[C@]2(C)[C@@H](C4=CC(=O)OC4)CC[C@]32O)C1"
parameter = "IC50"
result = "1270 nM"

[[record]]
smiles_representation = "C[C@]12CC[C@H](n3cc(CO[C@H]4O[C@H](CO)[C@@H](O)[C@H](O)[C@@H]4O)nn3)C[C@H]1CC[C@@H]1[C@@H]2CC[C@]2(C)[C@@H](C3=CC(=O)OC3)CC[C@]12O"
parameter = "IC50"
result = "410 nM"


====

// reported selectivity ratio at 48 h per item
test: Selectivity index, ratio of Cytotoxicity against African green monkey Vero cells assessed as reduction in cell viability after 48 hrs by SRB assay to Antiviral activity against acyclovir-resistant Herpes simplex virus 1 29-R infected in African green monkey Vero cells assessed as inhibition of viral replication after 48 hrs by naphthol blue-black staining-based plaque reduction assay; format: toxicity; settings: Vero cells infected with HSV-1 29-R, read-out: Ratio CC50/IC50
parameter: selectivity ratio at 48 h

[[record]]
smiles_representation = "C[C@]12CC[C@H](n3cc(CO[C@@H]4O[C@H](CO)[C@H](O)[C@H](O)[C@H]4O)nn3)C[C@H]1CC[C@@H]1[C@@H]2CC[C@]2(C)[C@@H](C3=CC(=O)OC3)CC[C@]12O"
result = 315

[[record]]
smiles_representation = "C[C@]12CC[C@H](NC(=O)CN3CCC(c4ccccc4)CC3)C[C@H]1CC[C@@H]1[C@@H]2CC[C@]2(C)[C@@H](C3=CC(=O)OC3)CC[C@]12O"
result = 560

[[record]]
smiles_representation = "C[C@]12CC[C@H](NC(=O)CNCCO)C[C@H]1CC[C@@H]1[C@@H]2CC[C@]2(C)[C@@H](C3=CC(=O)OC3)CC[C@]12O"
result = "> 1670"

